Reported melting point by item:

Recorded results for 7 compounds are shown here.
[[record]]
compound = "COc1cc(OC)c(Cl)c(-c2cc(C(=O)Nc3cccc(N4CCN(C(C)=O)CC4)c3)c3cn[nH]c3c2)c1Cl [Compound 13e]"
measurement_name = "melting point"
endpoint_result = "209 to 211 °C"

[[record]]
compound = "CNC(=O)c1cccc(NC(=O)c2cc(-c3c(Cl)c(OC)cc(OC)c3Cl)cc3[nH]ncc23)c1 [Compound 12b]"
measurement_name = "melting point"
endpoint_result = "155 to 157 °C"

[[record]]
compound = "COc1cc(OC)c(Cl)c(-c2cc(C(=O)Nc3cccc(N4CCOCC4)c3)c3cn[nH]c3c2)c1Cl [Compound 12f]"
measurement_name = "melting point"
endpoint_result = "159 to 161 °C"

[[record]]
compound = "COc1cc(OC)c(Cl)c(-c2cc(C(=O)Nc3ccccc3)c3cn[nH]c3c2)c1Cl [Compound 10a]"
measurement_name = "melting point"
endpoint_result = "115 to 117 °C"

[[record]]
compound = "COc1cc(OC)c(Cl)c(-c2cc(C(=O)Nc3cccc(-c4cnn(C)c4)c3)c3cn[nH]c3c2)c1Cl [Compound 12h]"
measurement_name = "melting point"
endpoint_result = "188 to 190 °C"

[[record]]
compound = "COc1cc(OC)c(Cl)c(-c2cc(C(=O)Nc3cccc(N4CCN(C)CC4)c3)c3cn[nH]c3c2)c1Cl [Compound 13a]"
measurement_name = "melting point"
endpoint_result = "205 to 207 °C"

[[record]]
compound = "COc1cc(OC)c(Cl)c(-c2cc(C(=O)Nc3cccc(-c4cncnc4)c3)c3cn[nH]c3c2)c1Cl [Compound 12i]"
measurement_name = "melting point"
endpoint_result = "177 to 179 °C"


Next:
// query melting point value for entry COc1cc(OC)c(Cl)c(-c2cc(C(=O)Nc3cccc(N4CCNCC4)c3)c3cn[nH]c3c2)c1Cl [Compound 12g]
221 to 223 °C

====

Below are IC50 values recorded for FGFR1 (Homo sapiens, UniProt P11362).
Respond numerically; units are nM and should not be typed.

Sample records with IC50:
[[record]]
molecule = "COc1cc(OC)c(Cl)c(-c2cc(C(=O)Nc3cccc(N4CCNCC4)c3)c3cn[nH]c3c2)c1Cl [Compound 12g]"
tested_target = "FGFR1 (Homo sapiens, UniProt P11362)"
endpoint_result = 78.8

[[record]]
molecule = "COc1cc(OC)c(Cl)c(-c2cc(C(=O)Nc3cccc(-c4cncnc4)c3)c3cn[nH]c3c2)c1Cl [Compound 12i]"
tested_target = "FGFR1 (Homo sapiens, UniProt P11362)"
endpoint_result = 86.2

[[record]]
molecule = "COc1cc(OC)c(Cl)c(-c2cc(C(=O)Nc3cccc(N4CCN(C(C)=O)CC4)c3)c3cn[nH]c3c2)c1Cl [Compound 13e]"
tested_target = "FGFR1 (Homo sapiens, UniProt P11362)"
endpoint_result = 118


Now look at this one.
What IC50 appears in the records for this molecule with FGFR1 (Homo sapiens, UniProt P11362)? CCN1CCN(c2cccc(NC(=O)c3cc(-c4c(Cl)c(OC)cc(OC)c4Cl)cc4[nH]ncc34)c2)CC1 [Compound 13b]
Sequence (P11362 22-822): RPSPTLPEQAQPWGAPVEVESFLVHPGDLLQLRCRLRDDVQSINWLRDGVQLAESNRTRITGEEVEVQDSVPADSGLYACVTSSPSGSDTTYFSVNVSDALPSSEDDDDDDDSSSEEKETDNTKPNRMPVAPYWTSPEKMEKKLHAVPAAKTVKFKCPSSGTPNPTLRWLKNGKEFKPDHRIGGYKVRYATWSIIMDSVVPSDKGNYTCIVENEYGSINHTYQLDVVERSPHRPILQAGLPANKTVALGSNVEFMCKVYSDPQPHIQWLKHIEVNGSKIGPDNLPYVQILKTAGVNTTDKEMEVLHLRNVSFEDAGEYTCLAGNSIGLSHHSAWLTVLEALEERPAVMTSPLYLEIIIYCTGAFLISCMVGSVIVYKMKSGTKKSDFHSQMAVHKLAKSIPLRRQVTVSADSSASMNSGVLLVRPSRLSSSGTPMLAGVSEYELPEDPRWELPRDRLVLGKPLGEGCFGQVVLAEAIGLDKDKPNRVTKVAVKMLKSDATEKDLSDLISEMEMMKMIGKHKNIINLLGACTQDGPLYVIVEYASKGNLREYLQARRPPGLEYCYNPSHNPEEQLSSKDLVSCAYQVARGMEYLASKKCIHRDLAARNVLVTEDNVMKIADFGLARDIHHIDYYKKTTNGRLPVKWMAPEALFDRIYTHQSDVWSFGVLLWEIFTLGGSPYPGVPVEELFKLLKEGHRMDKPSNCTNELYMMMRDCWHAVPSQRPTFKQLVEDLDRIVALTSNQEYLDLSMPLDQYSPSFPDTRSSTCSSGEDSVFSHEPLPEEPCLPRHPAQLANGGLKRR
328

====

Catalogue of compounds with associated inhibition at 0.1 µM
# TESTED_TARGET: FGFR1 (Homo sapiens)
# PROTOCOL: ELISA kinase assay (FGFR1 enzymatic assay)
# Assay type: biochemical
# CONDITION_DESCRIPTION: 0.1 μmol/L compound, read-out: Enzyme Inhibition (%)
The reply should read as a number followed by its unit.

# annotated cases, reported inhibition at 0.1 µM shown
[[record]]
compound = "COc1cc(OC)c(Cl)c(-c2cc(C(=O)Nc3cccc(-c4cnn(C)c4)c3)c3cn[nH]c3c2)c1Cl [Compound 12h]"
tested_target = "FGFR1 (Homo sapiens)"
measurement_name = "inhibition at 0.1 µM"
endpoint_result = "52.7%"

[[record]]
compound = "COc1cc(OC)c(Cl)c(-c2cc(C(=O)Nc3cccc(N4CCN(C)CC4)c3)c3cn[nH]c3c2)c1Cl [Compound 13a]"
tested_target = "FGFR1 (Homo sapiens)"
measurement_name = "inhibition at 0.1 µM"
endpoint_result = "72.7%"

[[record]]
compound = "COc1ccnc(NC(=O)c2cc(-c3c(Cl)c(OC)cc(OC)c3Cl)cc3[nH]ncc23)c1 [Compound 11c]"
tested_target = "FGFR1 (Homo sapiens)"
measurement_name = "inhibition at 0.1 µM"
endpoint_result = "42.3%"


Observed inhibition at 0.1 µM on FGFR1 (Homo sapiens) for COC(=O)c1cccc(NC(=O)c2cc(-c3c(Cl)c(OC)cc(OC)c3Cl)cc3[nH]ncc23)c1 [Compound 12a] , please.
35.7%

Observed inhibition at 0.1 µM on FGFR1 (Homo sapiens) for CCN1CCN(c2cccc(NC(=O)c3cc(-c4c(Cl)c(OC)cc(OC)c4Cl)cc4[nH]ncc34)c2)CC1 [Compound 13b] , please.
26.4%

Any idea what inhibition at 0.1 µM came out for COc1cccc(NC(=O)c2cc(-c3c(Cl)c(OC)cc(OC)c3Cl)cc3[nH]ncc23)c1 [Compound 10d] on FGFR1 (Homo sapiens)?
57%

Lab note: need inhibition at 0.1 µM with FGFR1 (Homo sapiens) for entry COc1cc(OC)c(Cl)c(-c2cc(C(=O)Nc3cccc(C(C)=O)c3)c3cn[nH]c3c2)c1Cl [Compound 10b] , please look it up.
76.4%
